// data source = patent US10722441B2

# System: reconstituted human epidermis with melanocytes of phototype II
# assay-info: Tanning properties in reconstituted human epidermis with melanocytes; semiquantification of melanin content by Fontana-Masson staining and image analysis
# Format: cell-based
# assay-context: second experiment; IBMX 100 μM vs untreated controls, Ib 40 μM and IIa 20 μM vs DMSO, mixture 40/20 μM, rhamnose 40 μM
property: Change of melanin content / pigmentation, in words

compound=Cc1cc(=O)c2c(O)cc(O[C@@H]3O[C@@H](C)[C@H](O)[C@@H](O)[C@H]3O)cc2o1 obs_value="significant increase"
compound="CC(C)Cn1c(=O)n(C)c(=O)c2[nH]cnc21 [IBMX, reference compound]" obs_value="significant increase"
compound=Cc1cc(=O)c2c(O[C@@H]3O[C@@H](C)[C@H](O)[C@@H](O)[C@H]3O)cc(O)cc2o1 obs_value="significant increase"
